Hey, just so you know, these numbers are from the supplement of paper PMC10498489.

Tested on: HepG2 Srxn1-GFP reporter cells (+30 nM CDDO-Me)
assay_info: Srxn1-GFP intensity median modified Z-score relative to plate median; higher = stronger NRF2 / oxidative stress reporter activation, active = hit call of the paper
applied_conditions: 10 µM; exposure time: 24h
About 330 (14%) of roughly 2,300 compounds showed activity. A selection follows.
readout_label: Srxn1-GFP intensity median modified Z-score

compound: CC[C@H](CCC(C)[C@H]1CCC2C3CCC4C[C@@H](O)CC[C@]4(C)C3CC[C@@]21C)C(C)C (stereo partly specified)
result_number: -0.389
//
compound: CCC(=O)c1ccc(O)cc1
result_number: 0.156
//
compound: COc1cc([C@@H]2c3cc4c(cc3C(O[C@@H]3O[C@@H]5CO[C@@H](c6cccs6)OC5[C@H](O)[C@H]3O)C3COC(=O)C32)OCO4)cc(OC)c1O (stereo partly specified)
result_number: 8.51
//
compound: CCCCC(=O)O[C@]1(C(=O)CO)[C@@H](C)CC2C3CC=C4CC(=O)C=C[C@]4(C)[C@@]3(F)C(O)C[C@@]21C (stereo partly specified)
result_number: -0.635
//
compound: NC(=O)C1CCCN(Cc2cccc(CNc3ncc(F)cn3)c2)C1 (stereo unspecified)
result_number: 1.1
//
compound: C[C@H](CCC(=O)O)[C@H]1CCC2C3C(=O)CC4CC(=O)CC[C@]4(C)C3CC(=O)[C@@]21C (stereo partly specified)
result_number: -0.197
//
compound: C[N+]1(C)C2CC[C@H]1C[C@@H](OC(=O)C(O)c1ccccc1)C2 (stereo partly specified)
result_number: 0.332
//
compound: Nc1ccc(S(=O)(=O)c2ccc(N)cc2)cc1
result_number: 0
//
compound: Nc1ccc(S(=O)(=O)O)cc1
result_number: 2.19
//
compound: O=C(O)C1=CC(=C(c2ccc(O)c(C(=O)O)c2)c2ccc(O)c(C(=O)O)c2)C=CC1=O
result_number: -0.835
//
compound: COc1cc([C@@H]2c3cc4c(cc3C(OC3O[C@@H]5COC(C)O[C@H]5[C@H](O)[C@H]3O)C3COC(=O)C32)OCO4)cc(OC)c1O (stereo partly specified)
result_number: 2.43
//
compound: CCc1cccc2c(C(=O)COC(=O)c3c4c(nc5ccccc35)CCC(C(C)(C)C)C4)c[nH]c12 (stereo unspecified)
result_number: 1.73
//
compound: OC[C@H](O)[C@@H](O)CO
result_number: -0.0632
//
compound: OC[C@H](O)C(O)[C@@H](O)CO
result_number: -0.222
//
compound: COc1cc2[nH]c(N(C)CCCNC(=O)C3CCCO3)nc(=N)c2cc1OC (stereo unspecified)
result_number: -0.081
//
compound: O=C(CCCN1CCN(c2ccccn2)CC1)c1ccc(F)cc1
result_number: 0.00738
